// reported composite z-score for each item listed
Tested on: Inhibin beta A chain (activin A)
measurement.notes: INHBA (activin A) binders on microarrays, primary screen, biochemical, small-molecule microarray, 635 nm fluorescence scan (AID 1107);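 note: mouse activin A protein probed at 4.33 µg/mL on printed slides; score merges bound-protein fluorescence near 667 nm with spot signal-to-noise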
assay.conditions: small-molecule microarray binding, higher = more signal
In your answer, state the number alone without any accompanying words.

Field: example entries. Status: answers known.
chemical.string	system	composite z-score
CN1C(=O)[C@@H]2[C@@H](CC(COc3ccccc3)=C([C@H](O)CCc3ccccc3)[C@@H]2CO)C1=O	Inhibin beta A chain (activin A)	0.484
CN(C)C(=O)[C@]1(CCS(=O)(=O)c2ccccc2)N=C(c2ccc(OCCCO)cc2)O[C@@H]1c1ccccc1	Inhibin beta A chain (activin A)	0.82

Okay, now this molecule:
Exercise: Write down the reported composite z-score of `COCCOC(=O)N1C(=O)[C@@]2(c3cc(C#CCC(C(=O)OC)C(=O)OC)ccc31)[C@H](c1ccc(OCCO)cc1)N1[C@H](c3ccccc3)[C@H](c3ccccc3)OC(=O)[C@H]1[C@@H]2C(=O)Nc1nc2ccccc2s1` , test system: Inhibin beta A chain (activin A).
Solution: 0.495

* * *

system: Luciferin 4-monooxygenase (Photinus pyralis) (UniProt P08659)
Sequence (P08659 whole entry, looked up): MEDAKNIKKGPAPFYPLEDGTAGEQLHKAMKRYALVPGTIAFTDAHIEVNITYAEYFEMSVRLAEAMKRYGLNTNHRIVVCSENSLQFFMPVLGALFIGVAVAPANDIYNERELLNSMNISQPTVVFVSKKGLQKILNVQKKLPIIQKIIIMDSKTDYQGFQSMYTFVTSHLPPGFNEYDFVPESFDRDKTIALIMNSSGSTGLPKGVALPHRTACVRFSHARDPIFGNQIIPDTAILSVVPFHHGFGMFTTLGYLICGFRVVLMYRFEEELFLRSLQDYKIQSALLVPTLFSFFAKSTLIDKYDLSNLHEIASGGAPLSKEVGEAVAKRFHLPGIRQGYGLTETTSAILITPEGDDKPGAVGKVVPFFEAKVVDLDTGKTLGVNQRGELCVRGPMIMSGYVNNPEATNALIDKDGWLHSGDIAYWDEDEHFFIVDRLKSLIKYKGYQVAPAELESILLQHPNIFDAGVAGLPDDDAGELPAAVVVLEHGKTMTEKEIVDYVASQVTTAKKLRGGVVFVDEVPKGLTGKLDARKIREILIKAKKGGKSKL
measurement.notes: firefly luciferase enzyme inhibitors, primary screen, biochemical, luminescence, purified enzyme, 2006 set (AID 1141);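 note: cell-free assay with purified firefly luciferase at 100 ng per well in PBS; test concentration not given here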
assay.conditions: SteadyGlo luminescence, 30 min, higher = more signal, called active from +8 up or from −8 down
// reported z-score for each item listed
In your answer, state the number alone without any accompanying words.

Field: example entries. Status: answers known.
compound	z-score
CC(C)C[C@@H]1NC(=O)[C@@]23C(=O)N[C@@H](Cc4ccccc4)C2[C@H](C)[C@@]2(C)O[C@H]2C3/C=C/C/C=C\CNC(=O)[C@@H](C)NC1=O (some centres undefined)	0.757
O=C1N[C@@H](Cc2ccccc2)C(=O)N2[C@@H]1C[C@@H](C(=O)O)[C@H]2c1ccc(O)cc1	-1.43
C=CCC(OC(C)=O)[C@@H]1[C@@H](N(Cc2ccc(-c3cccc(C(F)(F)F)c3)o2)C(=O)Cc2ccc(OC)cc2)c2cc(OCCCO)ccc2N1C(=O)Cc1ccc2ccccc2c1 (some centres undefined)	0.149
C=C(/C(=C/C[C@@H](OC(C)=O)c1ccc(OCCO)cc1)c1cc(C(=O)OC)ccc1OC)C(C)C	-0.6
NCCCCCNC(=O)[C@@H]1C[C@@H]2C(=O)N3CCC[C@H]3C(=O)N2[C@@H]1c1ccc(O)cc1	-0.444
COCCOC(=O)N1C(=O)[C@@]2(c3cc(C#CCNC(N)=O)ccc31)[C@H](c1ccc(O)cc1)N1[C@H](c3ccccc3)[C@H](c3ccccc3)OC(=O)[C@H]1[C@@H]2C(=O)N1CCN(c2ncccn2)CC1	-0.391
C[C@@H]1ON(c2ccc(I)cc2)[C@H](c2ccc(OC(=O)OC(C)(C)C)cc2)[C@H]1C(=O)N1C(=O)OC[C@H]1Cc1ccccc1	-0.695
COCCOC(=O)N1C(=O)[C@@]2(c3cc(C#CC4(O)CCCCCC4)ccc31)[C@H](c1ccc(OCCO)cc1)N1[C@H](c3ccccc3)[C@H](c3ccccc3)OC(=O)[C@H]1[C@@H]2C(=O)Nc1nc2ccccc2s1	-2.55

Okay, now this compound:
Exercise: Would you mind telling me what z-score value was observed for `COCCOC(=O)N1C(=O)[C@@]2(c3cc(C#CCC(C(=O)OC)C(=O)OC)ccc31)[C@H](C(=O)NC[C@H](O)c1ccccc1)[C@H]1C(=O)O[C@H](c3ccccc3)[C@H](c3ccccc3)N1[C@@H]2c1ccc(OCCO)cc1` ?
Solution: -0.997
